Data credit: the array DNA melting data of Ke et al. (doi:10.1101/2024.01.08.574731)

# Procedure Text: folding enthalpy; higher = less favourable; fluorescence melt of hairpins on a sequencing array, two-state fit
# Study Conditions: sodium 0.088 M
Attribute Measured: folding enthalpy
Please report the result as a number followed by the unit.

1) GGCGACGGAAACGTTGCC (((.(((....))).)))    -204 kJ/mol

## Task Look up and state reported folding enthalpy for GATAAAGAAATTTATC ((((((....))))))
## Result -66.4 kJ/mol

## Task Look up and state reported folding enthalpy for AAGTCGAAAGACTT (((((....)))))
## Result -76.5 kJ/mol

## Task Look up and state reported folding enthalpy for GATCTGCCTTCAGATC ((((((....))))))
## Result -128 kJ/mol
